Below: a set of entries, each annotated with reported Percent Control.
System: AMPK-alpha1
Construct: gene PRKAA1
Settings: Compound Concentration (nM):1000;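 also: KINOMEscan scanMAX binding as percent activity remaining versus control; lower means stronger binding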
// note: answer is a bare numeric in %

compound: COc1cc(C=NNc2ncnc3c2cnn3-c2ccccc2)ccc1O [GW513184X]
target entity: AMPK-alpha1
parameter: Percent Control
value reported: 100

Lab note: next compound to report on.
Percent Control recorded for this compound, CN1CCN(C(=O)c2ccc(NC(=O)Nc3ccc(N(C)c4ccnc(Nc5ccc(CS(C)(=O)=O)cc5)n4)cc3)cc2)CC1.Cl [GW830263A] , is 82

###

System: PIK3CA(I800L)
Conditions: Compound Concentration (nM):1000
parameter: Percent Control
Respond with the figure and its unit, in that order.

# example entries with known answers
compound: COc1ccc(COc2ccc(Cc3cnc(N)nc3N)cc2OC)cc1 [GW632580X]
parameter: Percent Control
value reported: 93%
--
compound: COc1cccc(-c2c[nH]c3c(N/N=C/c4ccncc4)ncnc23)c1 [GW814408X]
parameter: Percent Control
value reported: 100%
--
compound: O=C1Nc2ccc(C(=O)c3ccco3)cc2C1=Cc1cc(Cl)c(O)c(Cl)c1 [GW406108X]
parameter: Percent Control
value reported: 34%

Percent Control recorded for this compound, CCS(=O)(=O)c1ccc(OC)c(Nc2ncc(-c3cccc(OC)c3)o2)c1 [GW580509X] , is 100%

Percent Control recorded for this compound, Nc1ncnc2occ(-c3ccc(NC(=O)Nc4cc(C(F)(F)F)ccc4F)cc3)c12 [GW770249X] , is 100%

Percent Control recorded for this compound, "O=C(Nc1n[nH]c2nc(-c3ccc(O)cc3)c(Br)cc12)C1CC1" , is 100%

Percent Control recorded for this compound, Cl.O=C(Nc1ccc(Oc2ccc3[nH]c(NC(=O)c4ccccc4)nc3c2)cc1)Nc1cc(C(F)(F)F)ccc1F [GW709042A] , is 100%

Percent Control recorded for this compound, "CCc1ccc(Oc2nccc(-c3c(-c4ccc(F)cc4)ncn3C3CCNCC3)n2)cc1" , is 91%

Percent Control recorded for this compound, CCS(=O)(=O)c1ccc(OC)c(Nc2ncc(-c3cccc(F)c3)o2)c1 [GW621970X] , is 100%

###

Test system: PAK6
Conditions: Compound Concentration (nM):1000
Below: a set of entries, each annotated with reported Percent Control.
// note: answer is a bare numeric in %

Percent Control recorded for this compound, NS(=O)(=O)c1ccc(Nc2ncc(-c3ccccc3)o2)cc1 [GW572399X] , is 87

Percent Control recorded for this compound, COc1cc2ncn(-c3cc(O[C@H](C)c4ccccc4Cl)c(C(N)=O)s3)c2cc1OC [GSK237701A] , is 88

Percent Control recorded for this compound, CN(C)c1cc2c(Nc3ccc4c(cnn4Cc4ccccc4)c3)ncnc2cn1 [GW282974X] , is 87

Percent Control recorded for this compound, CC(C)COC(=O)c1ccc2c(c1)/C(=C/Nc1ccc(S(N)(=O)=O)cc1)C(=O)N2 [GW416981X] , is 100

Percent Control recorded for this compound, COc1cccc(-c2c[nH]c3c(N/N=C/c4ccncc4)ncnc23)c1 [GW814408X] , is 100

Percent Control recorded for this compound, COc1ccc2c(-c3ccnc(Nc4cccc(OC(F)(F)F)c4)n3)cnn2n1 [GW810372X] , is 96

Percent Control recorded for this compound, COc1ccccc1-c1cc(/C=C2\C(=O)Nc3ncc(Br)cc32)cc(Br)c1O [GW442130X] , is 100

Percent Control recorded for this compound, NS(=O)(=O)c1ccc(N/N=C2\C(=O)Nc3ccc(C(=O)NCCc4c[nH]cn4)cc32)cc1 [GW300660X] , is 100

###

Tested on: TYK2(JH1domain-catalytic)
Conditions: Compound Concentration (nM):1000
parameter: Percent Control (%)
// note: answer is a bare numeric in %

# example entries with known answers
molecule: CC1=C(C(=O)Nc2ccc3[nH]ncc3c2)C(c2ccc3ccccc3c2)CC(=O)N1 (stereo not drawn) [GSK270822A]
Percent Control [%]: 10

molecule: COc1ccc2[nH]c3c4[nH]c5ccc(OC)cc5c4c4c(c3c2c1)C(=O)NC4=O [GW296115X]
Percent Control [%]: 87

Percent Control recorded for this molecule, C/C(Nc1ccc(S(N)(=O)=O)cc1)=C1/C(=O)Nc2ccccc21 [GW335962X] , is 77

###

Below: a set of entries, each annotated with reported Percent Control.
Tested on: MTOR
Details: Compound Concentration (nM):1000
// note: answer is a bare numeric in %

Percent Control recorded for this molecule, CC(C)COC(=O)c1ccc2c(c1)/C(=C/Nc1ccc(S(N)(=O)=O)cc1)C(=O)N2 [GW416981X] , is 100

###

System: IKK-epsilon
Construct: gene IKBKE
Conditions: Compound Concentration (nM):1000
Below: a set of entries, each annotated with reported Percent Control.
// note: answer is a bare numeric in %

# example entries with known answers
compound: NS(=O)(=O)c1ccc(N/N=C2\C(=O)Nc3ccc(C(=O)NCCc4c[nH]cn4)cc32)cc1 [GW300660X]
Percent Control, %: 100
//
compound: COc1cc2ncn(-c3cc(O[C@H](C)c4ccccc4Cl)c(C(N)=O)s3)c2cc1OC [GSK237701A]
Percent Control, %: 81
//
compound: COc1ccccc1-c1cc(/C=C2\C(=O)Nc3ncc(Br)cc32)cc(Br)c1O [GW442130X]
Percent Control, %: 100
//
compound: CN1CCN(C(=O)c2ccc(NC(=O)Nc3ccc(N(C)c4ccnc(Nc5ccc(CS(C)(=O)=O)cc5)n4)cc3)cc2)CC1.Cl [GW830263A]
Percent Control, %: 38
//
compound: CC1=C(C(=O)Nc2ccc3[nH]ncc3c2)C(c2ccc3ccccc3c2)CC(=O)N1 (centres unmarked) [GSK270822A]
Percent Control, %: 87
//
compound: COc1ccc(COc2ccc(Cc3cnc(N)nc3N)cc2OC)cc1 [GW632580X]
Percent Control, %: 86

Percent Control recorded for this compound, C[C@@H](Oc1cc(-n2cnc3ccc(OC4CCN(C)CC4)cc32)sc1C(N)=O)c1ccccc1Cl [GSK579289A] , is 76

Percent Control recorded for this compound, "COc1ccc2cc(-c3c(-c4ccncc4)nc(-c4ccc(S(C)(=O)=O)cc4C)n3C)ccc2c1" , is 82

###

Below: a set of entries, each annotated with reported Percent Control.
Tested on: NEK6
Details: Compound Concentration (nM):1000
// note: answer is a bare numeric in %

# example entries with known answers
compound: Cl.c1ccc(Cc2nc3ccc(Nc4ncnc5ccccc45)cc3[nH]2)cc1 [GR269666A]
Percent Control / %: 100
--
compound: COc1ccccc1-c1cc(/C=C2\C(=O)Nc3ncc(Br)cc32)cc(Br)c1O [GW442130X]
Percent Control / %: 100

Recorded Percent Control for C/C(Nc1ccc(S(N)(=O)=O)cc1)=C1/C(=O)Nc2ccccc21 [GW335962X] on NEK6 was 100

Recorded Percent Control for NS(=O)(=O)c1ccc(N/N=C2\C(=O)Nc3ccc(C(=O)NCCc4c[nH]cn4)cc32)cc1 [GW300660X] on NEK6 was 100

Recorded Percent Control for "O=C(Nc1n[nH]c2nc(-c3ccc(O)cc3)c(Br)cc12)C1CC1" on NEK6 was 100

Recorded Percent Control for NS(=O)(=O)c1ccc(N/N=C2\C(=O)Nc3ccc(C(=O)NCc4ccncc4)cc32)cc1 [GW300657X] on NEK6 was 97

###

Test system: WNK1
Conditions: Compound Concentration (nM):1000
Below: a set of entries, each annotated with reported Percent Control.
// note: answer is a bare numeric in %

# example entries with known answers
molecule: CN(C)CCNC(=O)Nc1ccc(N(C)c2ccnc(Nc3ccc(CS(C)(=O)=O)cc3)n2)cc1.Cl [GW830900A]
target entity: WNK1
Percent Control (%): 92

molecule: Nc1ncnc2occ(-c3ccc(NC(=O)Nc4cc(C(F)(F)F)ccc4F)cc3)c12 [GW770249X]
target entity: WNK1
Percent Control (%): 96

molecule: Cl.O=C(O[C@H]1CN[C@H](C#Cc2cc3ncnc(Nc4ccc5c(cnn5Cc5ccccc5)c4)c3s2)C1)N1CCOCC1 [GSK200398A]
target entity: WNK1
Percent Control (%): 80

Percent Control recorded for this molecule, CN(C)c1cc2c(Nc3ccc4c(cnn4Cc4ccccc4)c3)ncnc2cn1 [GW282974X] , is 100

Percent Control recorded for this molecule, COc1ccc2c(-c3ccnc(Nc4cccc(OC(F)(F)F)c4)n3)cnn2n1 [GW810372X] , is 100

Percent Control recorded for this molecule, CC1=C(C(=O)Nc2ccc3[nH]ncc3c2)C(c2ccc3ccccc3c2)CC(=O)N1 (stereo not shown) [GSK270822A] , is 92

Percent Control recorded for this molecule, CC(C)COC(=O)c1ccc2c(c1)/C(=C/Nc1ccc(S(N)(=O)=O)cc1)C(=O)N2 [GW416981X] , is 100

Percent Control recorded for this molecule, Cl.O=S1CCN(Cc2ccc(-c3ccc4ncnc(Nc5ccc(OCc6ccccc6)c(F)c5)c4c3)o2)CC1 [GW576924A] , is 100

Percent Control recorded for this molecule, COc1cc(C=NNc2ncnc3c2cnn3-c2ccccc2)ccc1O [GW513184X] , is 97

Percent Control recorded for this molecule, "COc1ccc2cc(-c3c(-c4ccncc4)nc(-c4ccc(S(C)(=O)=O)cc4C)n3C)ccc2c1" , is 97

Percent Control recorded for this molecule, NS(=O)(=O)c1ccc(N/N=C2\C(=O)Nc3ccc(C(=O)NCCc4c[nH]cn4)cc32)cc1 [GW300660X] , is 100

Percent Control recorded for this molecule, COC(=O)Nc1nc2ccc(Oc3ccc(NC(=O)Nc4cc(C(F)(F)F)ccc4F)cc3)cc2s1.Cl [GW693917A] , is 76

Percent Control recorded for this molecule, CCS(=O)(=O)c1ccc(OC)c(Nc2ncc(-c3cccc(F)c3)o2)c1 [GW621970X] , is 90
